Where do the numbers come from? From patent US9174998B2.

- Test Name: PAMPA test (parallel artificial membrane permeability assay)
- Assay type: in vitro ADME
- Particulars: phosphate buffer pH 6.8, about 200 μM, about 5 hours, room temperature, read-out: Test Example 4 membrane permeation coefficient Pe
Binning of Papp into classes: low bracket (below 0.9 ×10⁻⁶ cm/s), middle bracket (0.9 ×10⁻⁶ cm/s to below 2 ×10⁻⁶ cm/s), high bracket (2 ×10⁻⁶ cm/s or more)

Exercise: Looking at `C=CCN1CC(=O)N2[C@@H](Cc3ccc(O)cc3)C(=O)N(Cc3ccc(F)c(N4CC(N5CCN(CC)CC5)C4)n3)C[C@@H]2N1C(=O)NCc1ccccc1` , which class would you pick?
Solution: high bracket

Exercise: Returns: class label. Input: C[C@H]1C2N(C(=O)CN(C)N2C(=O)NCc2ccccc2)[C@@H](Cc2ccc(O)cc2)C(=O)N1Cc1cccc2cccnc12 (some centres unmarked) [Comparative Example 2, reference compound]
Solution: low bracket

Exercise: Which band does `C=CCN1CC(=O)N2[C@@H](Cc3ccc(O)cc3)C(=O)N(Cc3cccc(N4CC(N5CCN(C)[C@H](C)C5)C4)n3)C[C@@H]2N1C(=O)NCc1ccccc1` fall in?
Solution: middle bracket

Exercise: Please report the category associated with C=CCN1CC(=O)N2[C@@H](Cc3ccc(O)cc3F)C(=O)N(Cc3cccc(N4CC(N(C)CCN5CCOCC5)C4)n3)C[C@@H]2N1C(=O)NCc1ccccc1 [Reference Example 5] , nothing else.
Solution: high bracket

Exercise: In plain terms, what class is `C=CCN1CC(=O)N2[C@@H](Cc3ccc(O)cc3F)C(=O)N(Cc3cccc(N4CC(N5CCN(CC)[C@@H](C)C5)C4)n3)C[C@@H]2N1C(=O)NCc1ccccc1` ?
Solution: high bracket

Exercise: Could you tell me which band `C=CCN1CC(=O)N2[C@@H](Cc3ccc(O)cc3F)C(=O)N(Cc3cccc(N4CC(N5CCN(C)CC5)C4)n3)C[C@@H]2N1C(=O)NCc1ccccc1` belongs to?
Solution: middle bracket

Exercise: Which bin should I file `C=CCN1CC(=O)N2[C@@H](Cc3c(F)cc(O)cc3F)C(=O)N(Cc3cccc(N4CC(N5CCN(C)[C@@H](C)C5)C4)n3)C[C@@H]2N1C(=O)NCc1ccccc1` under?
Solution: low bracket

Exercise: Band of `C=CCN1CC(=O)N2[C@@H](Cc3c(F)cc(O)cc3F)C(=O)N(Cc3cccc(N4CC(N5CCN(CC)[C@H](C)C5)C4)n3)C[C@@H]2N1C(=O)NCc1ccccc1` ?
Solution: low bracket
